system: KRAS-mutant PDC multicell tumor spheroid viability; test: Anticancer human tumor 521955-158-R2-J5-PDC patient-derived pancreatic carcinoma cell line growth inhibition [KRAS2]; details: second compound 0.1 µM; first compound 0.0316 µM; hits give low values
measured-quantity: viability, T/C

Examples from the recorded data:
{"compound": "CC(=O)Nc1cccc(-n2c(=O)n(C3CC3)c(=O)c3c(Nc4ccc(I)cc4F)n(C)c(=O)c(C)c32)c1 + COc1cc2nc(C)nc(NC(C)c3cc(N)cc(C(F)(F)F)c3)c2cc1OC1CCOC1", "subject-of-test": "KRAS-mutant PDC multicell tumor spheroid viability", "recorded-measurement": "12.7%"}
{"compound": "Cn1ncnc1[C@H]1c2n[nH]c(=O)c3cc(F)cc(c23)N[C@@H]1c1ccc(F)cc1 + C=CC(=O)N1CCN(c2nc(OCC3CCCN3C)nc3c2CCN(c2cccc4cccc(C)c24)C3)CC1CC#N", "subject-of-test": "KRAS-mutant PDC multicell tumor spheroid viability", "recorded-measurement": "81.3%"}
{"compound": "CC1(C)CCC(CN2CCN(c3ccc(C(=O)NS(=O)(=O)c4ccc(NCC5CCOCC5)c([N+](=O)[O-])c4)c(Oc4cnc5[nH]ccc5c4)c3)CC2)=C(c2ccc(Cl)cc2)C1 + COc1cc2nc(C)nc(NC(C)c3cc(N)cc(C(F)(F)F)c3)c2cc1OC1CCOC1", "subject-of-test": "KRAS-mutant PDC multicell tumor spheroid viability", "recorded-measurement": "74.8%"}
{"compound": "CN(C)C/C=C/C(=O)Nc1cc2c(Nc3ccc(F)c(Cl)c3)ncnc2cc1O[C@H]1CCOC1 + C=CC(=O)N1CCN(c2nc(OCC3CCCN3C)nc3c2CCN(c2cccc4cccc(C)c24)C3)CC1CC#N", "subject-of-test": "KRAS-mutant PDC multicell tumor spheroid viability", "recorded-measurement": "76.7%"}

q: Using known records, supply viability, T/C for COc1cc(Nc2ncc3c(n2)-c2ccc(Cl)cc2C(c2c(F)cccc2OC)=NC3)ccc1C(=O)O + C=CC(=O)N1CCN(c2nc(OCC3CCCN3C)nc3c2CCN(c2cccc4cccc(C)c24)C3)CC1CC#N
a: 51.1%

* * *

test system: KRAS-mutant PDC multicell tumor spheroid viability; assay: Anticancer human tumor 521955-158-R2-J5-PDC cell line growth inhibition [KRAS2]; conditions: second compound 3.16 µM; first compound 0.001 µM; hits give low values;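 note: viability read after seven days of drug exposure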
measured-quantity: viability, T/C (%)
Kindly provide the numeric value in % only, without the unit symbol.

Examples from the recorded data:
{"compound": "CC(=O)Nc1cccc(-n2c(=O)n(C3CC3)c(=O)c3c(Nc4ccc(I)cc4F)n(C)c(=O)c(C)c32)c1 + CNCc1ccccc1-c1csc(C(C)Nc2nc(C)nc3cc(OC)c(OC)cc23)c1", "recorded-measurement": 1.26}
{"compound": "CN(C)C/C=C/C(=O)Nc1cc2c(Nc3ccc(F)c(Cl)c3)ncnc2cc1O[C@H]1CCOC1 + COc1cc2nc(C)nc(NC(C)c3cc(N)cc(C(F)(F)F)c3)c2cc1OC1CCOC1", "recorded-measurement": 93.9}

Now consider a different compound.
q: Using known records, supply viability, T/C for Cn1ncnc1[C@H]1c2n[nH]c(=O)c3cc(F)cc(c23)N[C@@H]1c1ccc(F)cc1 + C=CC(=O)N1CCN(c2nc(=O)n(-c3c(C)ccnc3C(C)C)c3nc(-c4c(O)cccc4F)c(F)cc23)C(C)C1
a: 89.8

Data origin, for the record: PubChem BioAssay AID1963871
